Reference source for all entries: patent US20240279345A1

Assignment: determine reported MFI for the given binders.
target: T1, α5β1 integrin on cells (PMA-activated K562 cells; U87MG cells) (human, UniProt P08648 42-1049; P05556 21-798); assay: flow cytometry on PMA-activated K562 cells, hybridoma supernatant
T1 construct: Endogenous integrin of human cell lines; also called cellular α5β1 integrin; cell surface α5β1 integrin receptors
T1 sequence (P08648 42-1049 limits assumed, chain 1 of 2): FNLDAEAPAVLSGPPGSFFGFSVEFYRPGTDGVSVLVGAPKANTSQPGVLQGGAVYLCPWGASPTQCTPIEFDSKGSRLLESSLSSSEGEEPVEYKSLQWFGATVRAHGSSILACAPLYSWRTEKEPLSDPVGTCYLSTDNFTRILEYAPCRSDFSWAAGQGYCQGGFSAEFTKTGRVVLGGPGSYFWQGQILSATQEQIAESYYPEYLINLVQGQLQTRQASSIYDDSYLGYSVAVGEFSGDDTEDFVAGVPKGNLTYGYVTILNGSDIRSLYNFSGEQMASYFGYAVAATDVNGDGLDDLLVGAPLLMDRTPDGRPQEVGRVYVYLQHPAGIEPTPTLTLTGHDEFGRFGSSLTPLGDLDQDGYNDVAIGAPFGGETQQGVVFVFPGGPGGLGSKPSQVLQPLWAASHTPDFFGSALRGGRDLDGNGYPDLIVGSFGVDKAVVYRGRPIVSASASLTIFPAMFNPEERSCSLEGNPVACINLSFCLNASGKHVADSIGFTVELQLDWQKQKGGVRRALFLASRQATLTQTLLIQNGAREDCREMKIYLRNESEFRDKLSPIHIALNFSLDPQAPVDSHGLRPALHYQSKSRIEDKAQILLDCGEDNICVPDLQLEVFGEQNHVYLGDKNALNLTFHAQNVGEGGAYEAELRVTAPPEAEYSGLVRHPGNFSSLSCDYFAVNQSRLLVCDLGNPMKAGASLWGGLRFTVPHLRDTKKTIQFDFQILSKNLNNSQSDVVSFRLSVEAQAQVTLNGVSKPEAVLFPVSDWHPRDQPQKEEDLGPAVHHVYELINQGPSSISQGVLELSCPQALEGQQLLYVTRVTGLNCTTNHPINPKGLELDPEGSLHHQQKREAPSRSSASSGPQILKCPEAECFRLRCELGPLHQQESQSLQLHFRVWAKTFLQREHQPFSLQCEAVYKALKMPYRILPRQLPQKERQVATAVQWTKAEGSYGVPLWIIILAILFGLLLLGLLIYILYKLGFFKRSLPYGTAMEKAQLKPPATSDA
T1 sequence (P05556 21-798 limits assumed, chain 2 of 2): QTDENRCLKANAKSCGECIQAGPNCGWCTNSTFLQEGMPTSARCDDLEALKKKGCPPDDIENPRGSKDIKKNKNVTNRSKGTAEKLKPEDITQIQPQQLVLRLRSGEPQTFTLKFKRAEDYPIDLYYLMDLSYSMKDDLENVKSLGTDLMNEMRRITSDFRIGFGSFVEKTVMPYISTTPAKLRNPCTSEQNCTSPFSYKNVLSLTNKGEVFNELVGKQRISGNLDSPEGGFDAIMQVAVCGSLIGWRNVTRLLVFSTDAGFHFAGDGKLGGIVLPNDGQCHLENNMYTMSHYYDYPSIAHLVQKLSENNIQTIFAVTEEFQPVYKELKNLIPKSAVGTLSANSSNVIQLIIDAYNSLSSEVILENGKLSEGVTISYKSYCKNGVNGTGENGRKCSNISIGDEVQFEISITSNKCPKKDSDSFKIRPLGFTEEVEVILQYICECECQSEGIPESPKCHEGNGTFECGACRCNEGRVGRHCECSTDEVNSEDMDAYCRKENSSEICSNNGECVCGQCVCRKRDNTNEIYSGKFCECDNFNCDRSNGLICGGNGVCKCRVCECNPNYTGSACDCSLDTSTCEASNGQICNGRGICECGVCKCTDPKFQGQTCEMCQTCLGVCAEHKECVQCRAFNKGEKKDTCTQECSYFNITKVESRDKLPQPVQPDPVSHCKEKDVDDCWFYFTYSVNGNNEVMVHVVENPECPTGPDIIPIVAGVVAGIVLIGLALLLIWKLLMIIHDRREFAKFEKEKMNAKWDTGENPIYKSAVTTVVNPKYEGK
Give bare numbers.

1. C-14D12 (antibody, V domains shown, mouse hybridoma antibody (supernatant, or purified by Protein A); also called antibody designated C-14D12; C-14D2) VH: QVQLKESGPDLVAPSQSLSITCTVSGFSLTDYGVHWVRQPPGKGLEWLVVIWSDGSTTYNSALKSRLSITKDTSKRQVFLKMNSLQTDDTAMYYCARHAPSFIRYGSRYDALDYWGQGTSVTVSS VL: QIVLTQSPAIMSASLGERVTLTCTASSSVTSSFLHWYQQKPGSSPKLWIYSTSNLASGVPARFSGSGSGTSYSLTISSMEAEDAATYYCHQYHRSPPTFGGGTKLEIK: 2020

Quick one: give me MFI for each item below, same order please.
1. A-15B08 (antibody, V domains shown, mouse hybridoma antibody (supernatant, or purified by Protein A); NST N-glycosylation site in CDRH2; also called antibody designated A-15B08) VH: QVQLKESGPGLVAPSQSLSITCTISGFSLTSYGVHWVRQPPGKGLEWLVVIWSDGSTTYNSTLKSRLSISKDNSKSQVFFKMNSLQTDDTAMYYCARHYDYDGDWFAYWGQGTLVTVSA VL: QIVLTQSPAIMSASLGERVTMTCTASSRVSSNSLHWYQQKPGSSPKLWIYSTSNLASGVPARFSGSGSGTSYSLTISSMEAEDAATYYCHQYLRSPPTFGGGTKLEIK
2. C-8G11 (antibody, V domains shown, mouse hybridoma) VH: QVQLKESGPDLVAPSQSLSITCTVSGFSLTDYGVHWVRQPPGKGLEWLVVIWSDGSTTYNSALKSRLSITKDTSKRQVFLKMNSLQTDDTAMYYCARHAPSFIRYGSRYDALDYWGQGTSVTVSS VL: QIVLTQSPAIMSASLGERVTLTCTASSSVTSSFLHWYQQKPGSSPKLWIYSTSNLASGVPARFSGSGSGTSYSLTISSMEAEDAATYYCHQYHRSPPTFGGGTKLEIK

-- reply
1. 1390
2. 2690

-- ask Item under review: A-11G01 (antibody, V domains shown, mouse hybridoma) VH: QVQLKESGPGLVAPSQSLSITCTISGFSLTTYGVHWVRQPPGKGLEWLVVIWSDGSTTYNSALKSRLNITKDNSKSQVFLKMNSLQTDDTAMYYCVRHGGLLRRDAMDYWGQGTSVTVSS VL: QIVLTQSPAIMSASLGERVTMTCTASSSVSSNSFHWYQQKPGSSPKLWLYSTSNLASGVPARFSGSGSGTSYSLTISSMEAEDAATYYCHQYLRSPPTFGGGTKLEIK . Reported MFI?
-- reply 1610
